Reference source: paper PMC5817390

Format: in vivo, human (healthy subjects)
condition_label: both, human, in vivo, 60 mg, AUClast, ABCB1 rs1045642 TT; single 60-mg edoxaban, fasting, plasma; mean±s.d.
parameter_measured: AUC(0-t) (ng·h/mL)

* CN1CCc2nc(C(=O)N[C@@H]3C[C@@H](C(=O)N(C)C)CC[C@@H]3NC(=O)C(=O)Nc3ccc(Cl)cn3)sc2C1 | 1820

====

Assay type: in vivo, human (healthy subjects)
condition_label: both, human, in vivo, 60 mg, AUC0–24, ABCB1 rs1045642 CC; single 60-mg edoxaban; mean±s.d.
parameter_measured: AUC(0-t) (ng·h/mL)

* CN1CCc2nc(C(=O)N[C@@H]3C[C@@H](C(=O)N(C)C)CC[C@@H]3NC(=O)C(=O)Nc3ccc(Cl)cn3)sc2C1 [Edoxaban, edoxaban] | 1610

====

Format: in vivo, human (healthy subjects)
condition_label: both, human, in vivo, 60 mg, AUClast, SLCO1B1 rs4149056 TT; single 60-mg edoxaban; mean±s.d.
parameter_measured: AUC(0-t) (ng·h/mL)

- CN1CCc2nc(C(=O)N[C@@H]3C[C@@H](C(=O)N(C)C)CC[C@@H]3NC(=O)C(=O)Nc3ccc(Cl)cn3)sc2C1: 1790

====

Format: in vivo, human (healthy subjects)
condition_label: both, human, in vivo, 60 mg, C24, ABCB1 rs1045642 TT; plasma concentration at 24 h postdose; single 60-mg edoxaban; mean±s.d.
parameter_measured: concentration at 24 h (ng/mL)

• CN1CCc2nc(C(=O)N[C@@H]3C[C@@H](C(=O)N(C)C)CC[C@@H]3NC(=O)C(=O)Nc3ccc(Cl)cn3)sc2C1 = 12.3

====

Type: in vivo, human (healthy subjects)
condition_label: both, human, in vivo, 60 mg, AUClast, ABCB1 rs1045642 CC; single 60-mg edoxaban, fasting, plasma; mean±s.d.
parameter_measured: AUC(0-t) (ng·h/mL)

• CN1CCc2nc(C(=O)N[C@@H]3C[C@@H](C(=O)N(C)C)CC[C@@H]3NC(=O)C(=O)Nc3ccc(Cl)cn3)sc2C1 = 1760

====

Format: in vivo, human (healthy subjects)
condition_label: both, human, in vivo, 60 mg, Cmax, ABCB1 rs1045642 TT; single 60-mg edoxaban; mean±s.d.
parameter_measured: Cmax (ng/mL)

• CN1CCc2nc(C(=O)N[C@@H]3C[C@@H](C(=O)N(C)C)CC[C@@H]3NC(=O)C(=O)Nc3ccc(Cl)cn3)sc2C1 = 261

====

Format: in vivo, human (healthy subjects)
condition_label: both, human, in vivo, 60 mg, AUCinf, ABCB1 rs1045642 TT; single 60-mg edoxaban; mean±s.d.
parameter_measured: AUC(0-inf) (ng·h/mL)

- CN1CCc2nc(C(=O)N[C@@H]3C[C@@H](C(=O)N(C)C)CC[C@@H]3NC(=O)C(=O)Nc3ccc(Cl)cn3)sc2C1: 1860

====

Assay type: in vivo, human (healthy subjects)
condition_label: both, human, in vivo, 60 mg, C24, SLCO1B1 rs4149056 TT; 24 h postdose; single 60-mg edoxaban; mean±s.d.
parameter_measured: concentration at 24 h (µg/mL)

- CN1CCc2nc(C(=O)N[C@@H]3C[C@@H](C(=O)N(C)C)CC[C@@H]3NC(=O)C(=O)Nc3ccc(Cl)cn3)sc2C1: 0.0123

====

Type: in vivo, human (healthy subjects)
condition_label: both, human, in vivo, 60 mg, AUClast, SLCO1B1 rs4149056 C-carriers; single 60-mg edoxaban; mean±s.d.
parameter_measured: AUC(0-t) (ng·h/mL)

• CN1CCc2nc(C(=O)N[C@@H]3C[C@@H](C(=O)N(C)C)CC[C@@H]3NC(=O)C(=O)Nc3ccc(Cl)cn3)sc2C1 [Edoxaban, edoxaban] = 1780

====

Assay type: in vivo, human (healthy subjects)
condition_label: both, human, in vivo, 60 mg, C24, SLCO1B1 rs4149056 C-carriers; 24 h postdose; single 60-mg edoxaban; mean±s.d.
parameter_measured: concentration at 24 h (ng/mL)

* CN1CCc2nc(C(=O)N[C@@H]3C[C@@H](C(=O)N(C)C)CC[C@@H]3NC(=O)C(=O)Nc3ccc(Cl)cn3)sc2C1 | 11.6
